Quick record of pIC50 values for PARP1 (Homo sapiens (Human)).
In simple prose, pIC50 is minus the logarithm base ten of a concentration in moles per litre.

[2H]C([2H])([2H])NC(=O)c1ccc(N2CCN(Cc3ccc4c([nH]c(=O)c5c(F)cnn54)c3F)CC2)c(F)n1 (single isomer, unassigned) [Example 33]	7.96

Let us move to another entry and its pIC50.
Problem: Report value: pIC50, system: PARP1 (Homo sapiens (Human)), compound: [2H]C([2H])(c1ccc2c([nH]c(=O)c3c(F)cnn32)c1F)N1CCN(c2ccc(C(=O)NC)nc2F)CC1 (single isomer, unassigned) [Example 34]
Sequence (P09874 whole entry): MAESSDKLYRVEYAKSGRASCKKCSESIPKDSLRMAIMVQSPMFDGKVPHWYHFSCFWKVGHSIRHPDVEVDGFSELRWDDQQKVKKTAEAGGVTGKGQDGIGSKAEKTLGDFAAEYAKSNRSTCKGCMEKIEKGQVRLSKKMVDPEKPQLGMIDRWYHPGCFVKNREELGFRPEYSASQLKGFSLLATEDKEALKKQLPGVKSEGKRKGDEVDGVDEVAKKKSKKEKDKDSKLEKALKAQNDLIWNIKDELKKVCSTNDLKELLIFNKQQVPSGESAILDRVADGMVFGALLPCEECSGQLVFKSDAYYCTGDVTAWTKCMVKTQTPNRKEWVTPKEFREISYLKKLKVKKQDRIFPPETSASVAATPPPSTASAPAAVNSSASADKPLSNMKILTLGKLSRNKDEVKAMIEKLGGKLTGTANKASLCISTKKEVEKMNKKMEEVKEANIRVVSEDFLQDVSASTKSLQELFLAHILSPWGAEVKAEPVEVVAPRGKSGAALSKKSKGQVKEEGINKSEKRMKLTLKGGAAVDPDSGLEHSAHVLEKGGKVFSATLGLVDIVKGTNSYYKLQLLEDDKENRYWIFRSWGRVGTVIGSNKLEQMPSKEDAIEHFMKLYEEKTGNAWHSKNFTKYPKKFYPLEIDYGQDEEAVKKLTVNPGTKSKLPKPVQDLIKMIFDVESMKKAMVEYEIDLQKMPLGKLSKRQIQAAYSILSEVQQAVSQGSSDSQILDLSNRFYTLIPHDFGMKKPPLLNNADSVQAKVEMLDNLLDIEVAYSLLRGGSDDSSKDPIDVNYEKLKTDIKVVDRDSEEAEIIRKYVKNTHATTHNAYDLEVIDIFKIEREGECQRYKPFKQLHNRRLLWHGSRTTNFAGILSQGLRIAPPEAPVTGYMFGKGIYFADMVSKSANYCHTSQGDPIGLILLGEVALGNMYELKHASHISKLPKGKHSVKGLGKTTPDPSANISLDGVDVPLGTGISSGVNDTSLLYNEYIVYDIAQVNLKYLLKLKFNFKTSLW
Result: 7.40
